# Target System: Eg5 (Xenopus laevis, UniProt P28025)
# Construct: Xenopus laevis Eg5 corresponding to amino acids 1 to 487; made in house; host or cells: E. coli M15(pREP4)
# Sequence (P28025 1-487): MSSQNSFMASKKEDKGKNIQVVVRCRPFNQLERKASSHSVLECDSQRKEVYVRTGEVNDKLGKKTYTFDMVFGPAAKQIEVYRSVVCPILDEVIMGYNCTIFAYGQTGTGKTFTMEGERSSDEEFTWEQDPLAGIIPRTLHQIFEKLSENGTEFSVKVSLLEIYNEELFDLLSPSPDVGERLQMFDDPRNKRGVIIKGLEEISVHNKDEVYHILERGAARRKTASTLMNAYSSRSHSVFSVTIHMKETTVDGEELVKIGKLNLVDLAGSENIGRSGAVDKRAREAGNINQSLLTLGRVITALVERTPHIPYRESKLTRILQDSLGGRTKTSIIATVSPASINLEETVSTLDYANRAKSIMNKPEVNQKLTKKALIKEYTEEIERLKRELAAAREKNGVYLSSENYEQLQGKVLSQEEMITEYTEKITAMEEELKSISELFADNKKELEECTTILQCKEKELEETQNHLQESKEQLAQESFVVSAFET
# Experiment Summary: Microtubule-stimulated ATPase activity of Eg5 (EnzChek Phosphate Assay), IC50 determination
# Type: biochemical
Measured IC50 accompanies every entry in the list below.
Assay Readout: IC50

| Compound | Assay Readout | Assay Result |
| --- | --- | --- |
| CC1(C)CC(=O)C2=C(C1)NC(=S)NC2c1cccc(O)c1 (centres unmarked) | IC50 | 0.2 µM |
| CCOC(=O)C1=C(C)NC(=S)NC1c1cccc(O)c1 (centres unmarked) [monastrol, reference compound] | IC50 | 30 µM |
